TESTED_ON: Human IP6K1 (Homo sapiens, UniProt Q92551)
Construct: GST (N, cleaved yes); made in house; host or cells: C43 E. coli, pGEX-6P-2
Sequence (Q92551 whole entry): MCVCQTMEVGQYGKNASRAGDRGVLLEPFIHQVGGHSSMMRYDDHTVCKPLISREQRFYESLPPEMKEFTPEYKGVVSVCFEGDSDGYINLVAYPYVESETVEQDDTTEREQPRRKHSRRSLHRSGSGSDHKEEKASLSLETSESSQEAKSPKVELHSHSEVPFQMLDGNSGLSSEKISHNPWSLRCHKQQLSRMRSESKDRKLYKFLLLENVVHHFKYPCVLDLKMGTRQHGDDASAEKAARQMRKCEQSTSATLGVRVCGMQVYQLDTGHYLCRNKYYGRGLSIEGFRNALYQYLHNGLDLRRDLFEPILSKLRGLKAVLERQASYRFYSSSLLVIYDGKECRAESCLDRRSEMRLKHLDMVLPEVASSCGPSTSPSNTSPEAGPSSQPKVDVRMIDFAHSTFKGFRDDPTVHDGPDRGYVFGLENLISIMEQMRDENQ
EXPERIMENT_SUMMARY: IP6K1 high-throughput screen of the Sigma LOPAC (ADP-Glo Max, single point);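 note: final compound concentration 10µM in 5% DMSO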
Format: biochemical
EXPERIMENTAL_CONTEXT: LOPAC single-point screen; Z-score relative to plate average and StDev
Structures can show the parent of a compound that is named as a salt.
ATTRIBUTE_MEASURED: Z-score

>  <MOLECULE>
O=C(O)c1cc(=O)c2c(Cl)cc(Cl)cc2[nH]1

>  <DATA_VALUE>
-1.067

$$$$
>  <MOLECULE>
CCCN1CCc2cccc3c2[C@H]1Cc1ccc(O)c(O)c1-3.Cl [R(-)-Propylnorapomorphine hydrochloride]

>  <DATA_VALUE>
-1.089

$$$$
>  <MOLECULE>
CC[C@@H]1Cc2cc(O)ccc2C2=C1c1ccc(O)cc1C[C@H]2CC

>  <DATA_VALUE>
-0.6698

$$$$
>  <MOLECULE>
O=c1[nH]c2ccccc2n1CCCN1CCC(n2c(=O)[nH]c3cc(Cl)ccc32)CC1

>  <DATA_VALUE>
-0.7027

$$$$
>  <MOLECULE>
OCC1OC(n2cnc3ccccc32)C(O)C1O (stereo not drawn)

>  <DATA_VALUE>
-1.116

$$$$
>  <MOLECULE>
Cc1nc2c(OCc3ccccc3)cccn2c1CC#N

>  <DATA_VALUE>
-1.199

$$$$
>  <MOLECULE>
CN1C(=O)CC[C@H]1c1cccnc1 [(-)-Cotinine]

>  <DATA_VALUE>
-0.59

$$$$
>  <MOLECULE>
C[C@]12C=CC(=O)C=C1CC[C@@H]1C2=CC[C@]2(C)[C@@H](C(=O)CN3CCN(c4cc(N5CCCC5)nc(N5CCCC5)n4)CC3)CC[C@@H]12.O=C(O)/C=C\C(=O)O [U-74389G maleate]

>  <DATA_VALUE>
-0.6178

$$$$
>  <MOLECULE>
COc1ccc2c(c1)c(CC(=O)O)c(C)n2C(=O)c1ccccc1

>  <DATA_VALUE>
-0.7854

$$$$
>  <MOLECULE>
CC(C)C1C2CCC(C2)C1N.Cl (racemic) [AGN 192403 hydrochloride]

>  <DATA_VALUE>
-0.7209

$$$$
>  <MOLECULE>
Nc1nc(Cl)nc2c1ncn2[C@@H]1O[C@H](COP(=O)(O)OP(=O)(O)OP(=O)(O)O)C(O)C1O (stereo in doubt)

>  <DATA_VALUE>
-1.213

$$$$
>  <MOLECULE>
CCN(CC)CCNC(=O)c1ccc(N)cc1 [Procainamide hydrochloride]

>  <DATA_VALUE>
-0.822

$$$$
>  <MOLECULE>
Cl.Cl.NCCC(=O)NCCc1c[nH]cn1 [Carcinine dihydrochloride]

>  <DATA_VALUE>
-3.881

$$$$
>  <MOLECULE>
Nc1ncnc2c1nc(Sc1ccc(Cl)cc1)n2C1OC2COP(=O)(O)OC2C1O (stereo in doubt) [8-(4-Chlorophenylthio)-cAMP sodium]

>  <DATA_VALUE>
-0.5474

$$$$
>  <MOLECULE>
O=[N+]([O-])c1ccc(CSc2ncnc3c2ncn3[C@@H]2O[C@H](CO)[C@@H](O)[C@H]2O)cc1

>  <DATA_VALUE>
-0.5993

$$$$
>  <MOLECULE>
CCOC(=O)c1cnc2c(cnn2CC)c1NN=C(C)C [Etazolate hydrochloride]

>  <DATA_VALUE>
-0.8148

$$$$
>  <MOLECULE>
CNc1ncnc2c1ncn2[C@@H]1O[C@H](CO)[C@@H](O)[C@H]1O

>  <DATA_VALUE>
-0.9158

$$$$
>  <MOLECULE>
NC(=O)NO [Hydroxyurea]

>  <DATA_VALUE>
-0.6728

$$$$
>  <MOLECULE>
N.N.O=C([O-])C1(C(=O)[O-])CCC1.[Pt+2]

>  <DATA_VALUE>
-0.6982

$$$$
>  <MOLECULE>
CCn1cc(C(=O)[O-])c(=O)c2ccc(C)nc21.[Na+] [Nalidixic acid sodium]

>  <DATA_VALUE>
-0.7945

$$$$
>  <MOLECULE>
CC(=O)N[C@@H](Cc1c[nH]c2ccccc12)C(=O)OCc1cc(C(F)(F)F)cc(C(F)(F)F)c1

>  <DATA_VALUE>
-0.7382

$$$$
>  <MOLECULE>
CCCCc1ccc(C(=O)O)nc1

>  <DATA_VALUE>
-0.8767

$$$$
>  <MOLECULE>
O=C(Nc1cc(C(=O)Nc2ccc(S(=O)(=O)[O-])cc2S(=O)(=O)[O-])cc(C(=O)Nc2ccc(S(=O)(=O)[O-])cc2S(=O)(=O)[O-])c1)Nc1cc(C(=O)Nc2ccc(S(=O)(=O)[O-])cc2S(=O)(=O)[O-])cc(C(=O)Nc2ccc(S(=O)(=O)[O-])cc2S(=O)(=O)[O-])c1.[Na+].[Na+].[Na+].[Na+].[Na+].[Na+].[Na+].[Na+] [NF449 octasodium salt]

>  <DATA_VALUE>
-7.495

$$$$
>  <MOLECULE>
O=C(Nc1cccc(C(=O)Nc2ccc(S(=O)(=O)O)c3cc(S(=O)(=O)O)cc(S(=O)(=O)O)c23)c1)Nc1cccc(C(=O)Nc2ccc(S(=O)(=O)O)c3cc(S(=O)(=O)O)cc(S(=O)(=O)O)c23)c1

>  <DATA_VALUE>
-2.506

$$$$
